Biological target: T1, AFP158/HLA-A*02:01 complex (human)
T1 construct: biotinylated on the BSP by BirA for ELISA and panning; also called biotinylated AFP158/HLA-A*02:01 complex; Bio-AFP158
Assay: SPR; vs AS170036 VL1VH1
Please respond with reported Affinity increase for every item in the list.

{"columns": ["binder", "metric", "observedMeasurement"],
 "data": [
  ["AS170036 VL1VH1-VHG108N (scFv) scFv: QSALTQPRSVSGSPGQSVTISCAGTSSDVGSENYVSWYQQHPGKAPKLMIYQVNKRASGVPDRFSGSKSGNTASLTISGLQAEDEADYYCASYRSSDHNIVFGGGTKLTVLGGGGSGGGGSGGGGSEVQLVESGGGLVQPGGSLRLSCAASGFTFSSYAMSWVRQAPGKGLEWVSTINSGTGSPYYADSVKGRFTISRDNSKNTLYLQMNSLRAEDTAVYYCAKNFFDGSWFLNPPAMDYWGQGTLVTVSSHHHHHH", "Affinity increase", "> 2 fold"],
  ["AS170036 VL1VH1-VHG108D (scFv) scFv: QSALTQPRSVSGSPGQSVTISCAGTSSDVGSENYVSWYQQHPGKAPKLMIYQVNKRASGVPDRFSGSKSGNTASLTISGLQAEDEADYYCASYRSSDHNIVFGGGTKLTVLGGGGSGGGGSGGGGSEVQLVESGGGLVQPGGSLRLSCAASGFTFSSYAMSWVRQAPGKGLEWVSTINSGTGSPYYADSVKGRFTISRDNSKNTLYLQMNSLRAEDTAVYYCAKNFFDGSWFLDPPAMDYWGQGTLVTVSSHHHHHH", "Affinity increase", "> 2 fold"]
]}

Kindly review the next binder as well.
Query :: # lookup: Affinity increase of AS170036 VL1VH1-VHS57Q (scFv) scFv: QSALTQPRSVSGSPGQSVTISCAGTSSDVGSENYVSWYQQHPGKAPKLMIYQVNKRASGVPDRFSGSKSGNTASLTISGLQAEDEADYYCASYRSSDHNIVFGGGTKLTVLGGGGSGGGGSGGGGSEVQLVESGGGLVQPGGSLRLSCAASGFTFSSYAMSWVRQAPGKGLEWVSTINSGTGQPYYADSVKGRFTISRDNSKNTLYLQMNSLRAEDTAVYYCAKNFFDGSWFLGPPAMDYWGQGTLVTVSSHHHHHH
Result :: > 2 fold
